Taken from PubChem BioAssay.

Assay: inhibitors of Sendai virus-induced IRF3 signaling, primary screen, TLR/RLR signaling modifier project, cell-based, Sendai virus stimulus, luciferase, 10K MLSCN set (AID 602276);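 note: firefly luciferase from ISG56 promoter only with Renilla not read in this screen; 0% = Sendai virus plus DMSO and 100% = medium plus DMSO without virus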
Details: HEK293 RL24 IRF3 luciferase reporter, at 10 µM, active compounds read high
measured.quantity: inhibition (%)
Write down the numeric answer in % and omit the unit.

Below, each entry is followed by its recorded inhibition result.
{"smiles.repr": "COc1ccc(Oc2nc(Oc3ccc(OC)cc3)nc(Oc3ccc(OC)cc3)n2)cc1", "measured.quantity": "inhibition", "unit.abbrev": "%", "endpoint.result": 3.19}
{"smiles.repr": "COc1ccccc1CNC(=O)Nc1cccs1", "measured.quantity": "inhibition", "unit.abbrev": "%", "endpoint.result": -0.521}
{"smiles.repr": "COc1ccc(C2N(C(=O)c3ccccc3)CCN2C(=O)c2ccccc2)cc1", "measured.quantity": "inhibition", "unit.abbrev": "%", "endpoint.result": 7.08}

Notebook: Cn1c(=N)c(S(=O)(=O)c2ccc(Cl)cc2)cc2c(=O)n3ccccc3nc21 , inhibition read as 8.16

inhibition in this record for CC(C)N(C(=O)CSc1nnc(-c2cc3ccccc3cc2O)n1Cc1ccco1)C(C)C : -4.55

###

Assay: inhibitors of mutant huntingtin aggregation, primary screen, imaging, exon1htt(103Q)mCFP cells, high-content imaging (AID 483);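 note: compound exposure lasted 3 days before fixation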
Settings: exon1htt(103Q)mCFP cell line, aggregate imaging, at 2 µM; active compounds read high
Quick reference for inhibition of aggregation among some molecules
State the answer as a number, implicitly in %.

Please review the entries below; each comes with its answer.
{"smiles.repr": "CCc1nnc(NC(=O)c2cc3ccccc3oc2=O)s1", "endpoint.result": 15.7}
{"smiles.repr": "CC(C)COC(=O)N(C)c1ccc(C(O)(C(F)(F)F)C(F)(F)F)cc1", "endpoint.result": -7.8}
{"smiles.repr": "CC(=O)Nc1cccc(Oc2nc(C)cc(C)c2C#N)c1", "endpoint.result": 0.6}

# inhibition of aggregation (molecule: Cn1c(=N)c(S(=O)(=O)c2ccc(Cl)cc2)cc2c(=O)n3ccccc3nc21 ) is -0.4

GET /value?item= O=c1[nH]c(NCc2ccccc2)nc2c1CCCC2 &field=inhibition of aggregation returns -3.3

Lab book: inhibition of aggregation of COC(=O)c1nnn(-c2ccccc2)c1N noted as 19

###

Molecular target: Alpha-2C adrenergic receptor (Homo sapiens)
Assay: modulators of alpha2C/GIRK thallium flux, primary screen, cell-based, HEK293 alpha2C/GIRK1/2 (AID 624);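 note: slope of fluorescence ratio to pre-addition baseline per second over 15 to 24 s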
Conditions: thallium flux BTC fluorescence, at 10 µM, actives lie on both sides
measured.quantity: slope
Enter the number alone.

{"compound": "O=C(OCCN(CCOC(=O)c1ccncc1)S(=O)(=O)c1cccs1)c1ccncc1", "tested.on": "Alpha-2C adrenergic receptor (Homo sapiens)", "slope": 0.00486}
{"compound": "CCCn1c(SCC(=O)Nc2ccccc2C(=O)OCC)nc2c1c(=O)n(C)c(=O)n2C", "tested.on": "Alpha-2C adrenergic receptor (Homo sapiens)", "slope": 0.00524}
{"compound": "CN(CC(=O)O)S(=O)(=O)c1cc(Cl)ccc1Cl", "tested.on": "Alpha-2C adrenergic receptor (Homo sapiens)", "slope": 0.0044}
{"compound": "Cc1cccc(-c2nc(CN3CCCC(C(=O)NC4CCCC4)C3)c(C)o2)c1 (stereo not drawn)", "tested.on": "Alpha-2C adrenergic receptor (Homo sapiens)", "slope": 0.00415}
{"compound": "COC(=O)N1CC(c2ccccc2)CC1=O (stereo not drawn)", "tested.on": "Alpha-2C adrenergic receptor (Homo sapiens)", "slope": 0.00505}
{"compound": "CCOc1ccc(Cn2nnc(C(=O)NCc3ccc(OC)cc3)c2N)cc1", "tested.on": "Alpha-2C adrenergic receptor (Homo sapiens)", "slope": 0.00681}
{"compound": "COc1ccc(C)cc1NC(=O)COCC(=O)O", "tested.on": "Alpha-2C adrenergic receptor (Homo sapiens)", "slope": 0.00568}
{"compound": "CC(C)CNS(=O)(=O)c1ccc(OCC(=O)Nc2ccc3c(c2)OCO3)c(Cl)c1", "tested.on": "Alpha-2C adrenergic receptor (Homo sapiens)", "slope": 0.00353}
{"compound": "COc1ccc(OC)c(C(=O)CSc2nnc(-c3ccc(OC)c(OC)c3)o2)c1", "tested.on": "Alpha-2C adrenergic receptor (Homo sapiens)", "slope": 0.00796}
{"compound": "CC(C)CCn1c(NCCc2ccccc2)nc2c1c(=O)n(C)c(=O)n2C", "tested.on": "Alpha-2C adrenergic receptor (Homo sapiens)", "slope": 0.00481}

Looking up Cc1noc(C)c1CSc1nnc2scc(-c3ccc(Cl)cc3)n12 , I see its slope listed as 0.00506

Per the records, this compound ( C=COCCNC(=O)Nc1ccc(Cl)c(Cl)c1 ) has slope equal to 0.00498

For this compound ( Oc1ccc(Cl)cc1-c1cc(-c2ccccc2)n[nH]1 ), measured slope is 0.00732

Entry COc1ccc(CC(=O)NCc2nnc(SCC(=O)Nc3nccs3)n2-c2ccccc2)cc1 , slope reported as 0.00708

Looking up CC1CCN(c2nc3c(c(=O)n(C)c(=O)n3C)n2Cc2ccccc2)CC1 , I see its slope listed as 0.00388

Reported slope ( CC(=O)N(C)C1(c2nnnn2CCOC(=O)Nc2cccc3ccccc23)CCCC1 ) = 0.00458

Consider COc1c(Br)cc2c(C)c(C(=O)O)oc2c1Br . Its measured slope is 0.00602

Form: compound = C[C@H](NC(=O)NCc1cccs1)C(=O)O ; slope = 0.00368

Entry CN(Cc1nc(-c2ccncc2)no1)S(=O)(=O)c1ccccc1 ; slope = 0.00664

Value of measured slope for the entry CC(C)(CSc1nncn1N)NS(=O)(=O)c1ccc(Cl)cc1 : 0.00436

get_value(item= O=C(O)c1ccccc1S(=O)(=O)NCC(O)COc1ccc(Br)cc1 (stereo not drawn) , readout=slope) returns 0.00443

For this compound ( CCOC(=O)c1c(C)[nH]c(C(=O)Cn2c(=O)c3c(ncn3CC)n(Cc3ccccc3)c2=O)c1C ), measured slope is 0.00419

The value of slope measured for the compound CCC(C)(C)NC(=O)CN(Cc1ccc2c(c1)OCO2)C(=O)CCC(=O)Nc1ccccn1 turned out to be 0.00669

###

Experiment: inhibitors of poly I:C-induced TLR3 signaling, primary screen, cell-based, poly I:C stimulus, luciferase, 10K MLSCN set (AID 602277)
Conditions: HEK293-TLR3 RL24 IRF3 luciferase reporter, at 10 µM
Calls of active or inactive are those of the source.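 How the source made its calls: active means inhibition of the reporter signal at or above 50%; inactive means inhibition below 50%.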
Would you mind answering with one of these outcomes? t = active, f = inactive

{"compound": "COc1ccc(NS(=O)(=O)c2ccc(NC(C)=O)cc2)cc1OC", "class": "f"}

Ask: GET /call?item= CCCOc1ccc(N2CC(C(=O)Nc3ccc4c(c3)OCO4)CC2=O)cc1 (stereo not drawn) returns the recorded outcome of this test.
Reply: f

Ask: Recorded call for CCCCC(=O)NCCc1cc2ccc(OC)cc2[nH]c1=O ?
Reply: t

Ask: Outcome? COc1ccc(-n2c(Cc3cccn3C)nnc2SCC(=O)Nc2cccc(OC)c2)cc1
Reply: f

Ask: Given CC1CCC(NC(=O)C2(C)CCC(=O)N2Cc2cccnc2)CC1 (stereo not drawn) , state the outcome it received in this test.
Reply: f

Ask: Please share the test call associated with N#CC1=C(SCC(=O)NC23CC4CC(CC(C4)C2)C3)NC(=O)C(C#N)C12CCCCC2 (stereo not drawn) .
Reply: f

###

Assay: inhibitors of poly I:C-induced TLR3 signaling, primary screen, cell-based, poly I:C stimulus, luciferase, 10K MLSCN set (AID 602277)
Conditions: HEK293-TLR3 RL24 IRF3 luciferase reporter, at 10 µM
The source made the active and inactive calls.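 How the source made its calls: active means inhibition of the reporter signal at or above 50%; inactive means inhibition below 50%.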
Write down one outcome, taken from active, inactive

Below, 2 molecules whose answers are already recorded.
{"molecule": "CC(=O)Nc1cccc(NC(=O)c2ccco2)c1", "class": "inactive"}
{"molecule": "Cc1nn(C)c(C)c1CN(C)C(=O)c1cc2nc(-c3ccco3)cc(C(F)(F)F)n2n1", "class": "inactive"}

Ask: Please share the test call associated with CCCCc1nccn1CCn1ccnc1CCCC .
Reply: inactive

Ask: How was O=C(NCCCN1CCOCC1)c1ccc(CS(=O)(=O)c2c(Cl)cccc2Cl)o1 classified in this test?
Reply: inactive

Ask: Which outcome was entered for the molecule O=C(c1ccncc1)N1CCN(C(=O)c2cccs2)CC1 in this test?
Reply: inactive

Ask: Just curious, what result did CCCCCCC(C)n1[nH]c(=O)c2c(C)cc(=O)[nH]c21 (stereo not drawn) get here?
Reply: inactive

Ask: Please share the test call associated with O=C(COC(=O)C1CC(=O)N(c2ccccc2)C1)c1ccccc1 (stereo not drawn) .
Reply: inactive

Ask: What outcome does the record of this test show for N#Cc1ccc(-c2csc(NC(=O)C3CC3)n2)cc1 ?
Reply: inactive

Ask: Please indicate how the test categorized Cc1noc(C)c1CSc1nnc2scc(-c3ccc(Cl)cc3)n12 .
Reply: inactive

Ask: Recorded call for Cc1ccc(-c2nn(-c3ccccc3)cc2CN(Cc2ccccc2)C(=O)CCC(=O)O)o1 ?
Reply: inactive
